pIC50 reference
Tested on: GFP-eIF2α in HEK293 cells
Assay: PERK cellular assay, TR-FRET in HEK293-EGFP-eIF2a cells after tunicamycin-induced ER stress
Assay type: cell-based
Conditions: HEK293-EGFP-eIF2a cells, tunicamycin 2 hours; read-out: Cellular eIF2α IC50
Experimental: Stable cell lines were created in HEK293 cells using lentiviral particles harboring an expression vector for GFP-eIF2α. Cells were selected using puromycin and enriched using fluorescence activated cell sorting against GFP. […] Cells were lysed and TR-FRET was measured in an EnVision plate reader (PerkinElmer). […] IC50 values were calculated using 4-parameter logistical fitting in XLFit.
pIC50: −log10 of the molar value.

## Task Give pIC50 (GFP-eIF2α in HEK293 cells) of the following molecule: Cc1nc(N)c2c(-c3ccc(NC(=O)C(O)c4cccc(F)c4)cc3F)cn(C)c2n1 (stereo not drawn) [Example 79]
## Result 6.00 to 6.30

## Task Do the same for CCc1cccc(C(O)C(=O)Nc2ccc(-c3cn(C)c4nc(C)nc(N)c34)c(C)c2)c1 (stereo not drawn) [Example 43] please
## Result 7.60 to 9.00

## Task Do the same for COc1cc(NC(=O)C(O)c2cccc(F)c2)ccc1-c1cn(C)c2nc(C)nc(N)c12 (single isomer, unassigned) [Example 105] please
## Result < 5.30

## Task Do the same for Cc1nc(N)c2c(-c3ccc(NC(=O)C(O)c4cc(F)cc(F)c4)cc3C)cn(C)c2n1 (stereo not drawn) [Example 53] please
## Result 6.30 to 6.60

## Task Do the same for Cc1nc(N)c2c(-c3ccc(NC(=O)C(O)c4ccccc4C)cc3F)cn(C)c2n1 (stereo not drawn) [Example 71] please
## Result 5.52 to 5.70

## Task Do the same for Cn1cc(-c2ccc(NC(=O)C(O)c3cccc(F)c3)cc2)c2c(N)ncnc21 (stereo not drawn) [Example 30] please
## Result 6.60 to 7.00
